Entry source: PubChem BioAssay

# run description: growth inhibition, single agents and combos, CRL2098, cell-based, BGB or cisplatin IC20 combos, synergistic combos for chromothripsis tumors (AID 1671454);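 also: cells exposed for 96 h before readout; 0% = vehicle DMSO and 100% = killing by high DMSO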
# condition info: CRL2098 osteosarcoma cells, drug combinations, measured here: combination with BGB at IC20, at 0.5 µM, stronger effect = higher value
Non-standard residues stand in square brackets, D forms with d. Residues, ends and D or L forms follow the SMILES beside them. Dolaproine = CO[C@@H]([C@@H]1CCCN1)[C@@H](C)C(=O)O; Dil = CC[C@H](C)[C@H](NC)[C@@H](CC(=O)O)OC; NMeV = CN[C@H](C(=O)O)C(C)C
Kindly supply the reported inhibition values for the records listed here.
A number alone suffices; assume %.

Prompt: Give the measured inhibition of O=c1ccn(C2CC(O)C(CO)O2)c(=O)[nH]1 (stereo not given) .
Completion: -48.5

Prompt: Likewise for `COc1ccc(-c2nc(-c3cc(C(F)(F)F)cc(C(F)(F)F)c3)n(Cc3ccc(C(N)=O)cc3)c2-c2ccc(OC)cc2)cc1` ?
Completion: -72.7

Prompt: `CC(C)(C#N)c1ccc(N2C(=O)OCc3cnc4ccc(-c5cnc6ccccc6c5)cc4c32)cc1` ?
Completion: -42.2

Prompt: Now the same for `Cc1cc(C=CC#N)cc(C)c1Nc1ccnc(Nc2ccc(C#N)cc2)n1`
Completion: -61.5

Prompt: Param item: Cc1cn(C2C=CC(CO)O2)c(=O)[nH]c1=O (stereo not given)
Completion: -91.8

Prompt: Follow-up item: `C[C@@H]1O[C@@H](O[C@@H]2[C@@H](O)[C@H](OCCc3ccc(O)c(O)c3)O[C@H](CO)[C@H]2OC(=O)C=Cc2ccc(O)c(O)c2)[C@H](O)[C@H](O)[C@H]1O`
Completion: -22.9

Prompt: Also, `O=c1cc(-c2ccc(O)cc2)[nH]c(=S)[nH]1` please.
Completion: -28.7

Prompt: Now the compound `COc1ccccc1S(=O)(=O)Nc1ccc2c(c1)CN(C)C(=O)N2`
Completion: 0.952

Prompt: Now consider `O=C(CCCCCCC(=O)Nc1ccc(I)cc1)NO` and answer again.
Completion: -46.1

Prompt: Now give it for CC(C)(O)[C@H]1CC[C@@](C)(C2[C@@H](O)C[C@@]3(C)[C@@H]4C[C@H](O)C5C(C)(C)[C@@H](O)CCC56CC46CC[C@]23C)O1 (stereo not given in full) too.
Completion: -24.4

Prompt: Param item: `Cc1ccc([N+](=O)[O-])cc1S(=O)(=O)N(C)/N=C\c1cnc2ccc(Br)cn12`
Completion: 89.1

Prompt: Same for C=C(NC(=O)C(=C)NC(=O)c1csc(C2=NC3c4csc(n4)C4NC(=O)c5csc(n5)C(C(C)(O)C(C)O)NC(=O)C5CSC(=N5)/C(=C/C)NC(=O)C(C(C)O)NC(=O)c5csc(n5)C3(CC2)NC(=O)C(C)NC(=O)C(=C)NC(=O)C(C)NC(=O)C(C(C)CC)NC2C=Cc3c(C(C)O)cc(nc3C2O)C(=O)OC4C)n1)C(N)=O (stereo not given)
Completion: 7.69

Prompt: Moving on to `C=C1C(=O)O[C@@H]2C=C(C)CCC=C(C)CC[C@@H]12`
Completion: -14.4

Prompt: Another compound to check: `Nc1nc(NC2CC2)cc(-c2cccc(Cl)c2Cl)n1`
Completion: -42.1

Prompt: Another: `Cc1cc(C#N)cc(C)c1Oc1nc(Nc2ccc(C#N)cc2)nc(N)c1Br`
Completion: -26.7

Prompt: Okay, and CCC(Sc1nnc2c3ccccc3n(CC)c2n1)C(=O)Nc1ccccc1OC (stereo not given) ?
Completion: -38.3

Prompt: Query CC[C@H](C)[C@@H]([C@@H](CC(=O)N1CCC[C@H]1[C@H](OC)[C@@H](C)C(=O)N[C@@H](Cc1ccccc1)C(=O)O)OC)N(C)C(=O)[C@@H](NC(=O)[C@@H](NC)C(C)C)C(C)C (H-[NMeV]V[Dil][Dolaproine]F-OH) next
Completion: 36.6

Prompt: // same read-out, input: `C[n+]1ccc(-c2c3nc(c(-c4cc[n+](C)cc4)c4ccc([nH]4)c(-c4cc[n+](C)cc4)c4nc(c(-c5cc[n+](C)cc5)c5ccc2[nH]5)C=C4)C=C3)cc1`
Completion: -55.7

Prompt: Now consider `O=c1[nH]c(=S)[nH]c2nc(-c3ccccc3)c(-c3ccccc3)nc12` and answer again.
Completion: -21.3

Prompt: Same for `O=C(O)c1cc2cccc([N+](=O)[O-])c2[nH]1`
Completion: -23.9

Prompt: Further, for CC1OC(CC(=O)O)CC2=C1C(=O)c1c(O)cccc1C2=O (stereo not given) ?
Completion: 100

Prompt: Next: CC(Oc1cc(-c2cnn(C3CCNCC3)c2)cnc1N)c1c(Cl)ccc(F)c1Cl (stereo not given)
Completion: -20.2

Prompt: Repeat with `Cc1cc(C)c(Nc2ccnc(Nc3ccc(C#N)cc3)n2)c(C)c1`
Completion: -39

Prompt: Repeat for the following compound: `NC(=S)NN=Cc1ncccc1N`
Completion: -6.91

Prompt: Then `O=C(CCCCCCC(=O)NO)NO` ?
Completion: -52

Prompt: Next: NC(=O)c1cccc2[nH]c(-c3ccc(C4CCCN4)cc3F)nc12 (stereo not given)
Completion: -1.16

Prompt: Proceed to CCC1(O)C(=O)OCc2c1cc1n(c2=O)Cc2cc3cc(O)ccc3nc2-1 (stereo not given)
Completion: 62.2

Prompt: Would you kindly repeat that for Cc1cn(C2CC(O)C(COP(=O)(O)OP(=O)(O)OP(=O)(O)O)O2)c(=O)[nH]c1=O (stereo not given) ?
Completion: -16.6

Prompt: Also check `CN(C)C(=S)NN=C(c1ccccn1)c1ccccn1`
Completion: 97.8

Prompt: Now this one: CC1OC(n2cc(F)c(=O)[nH]c2=O)C(O)C1O (stereo not given)
Completion: -21.1

---

# run description: drug combination toxicity in non-malignant astrocytes – cell-based, BGB or cisplatin IC20 combos, cytotoxicity control for chromothriptic childhood tumor combination screen (AID 1671460);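 also: cells exposed to compounds for 96 hours before viability readout; 0% = vehicle and 100% = killing control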
# condition info: Human astrocytes, viability inhibition, drug combinations; measured here: combo with BGB IC20; at 0.5 µM; stronger effect = higher value
Task for the reader: assign each of the following molecules its reported inhibition.
Give your result in % as a bare value.

Prompt: Fill in: inhibition of `O=C(O)c1cc2cccc([N+](=O)[O-])c2[nH]1` is ___
Completion: -13.8

Prompt: Same read-out for `C[n+]1ccc(-c2c3nc(c(-c4cc[n+](C)cc4)c4ccc([nH]4)c(-c4cc[n+](C)cc4)c4nc(c(-c5cc[n+](C)cc5)c5ccc2[nH]5)C=C4)C=C3)cc1` ?
Completion: 4.28

Prompt: Note, next up: `Cc1cc(C)cc(C(=O)NOCCCCCC(=O)NO)c1`
Completion: 37.9

Prompt: Now give it for O=c1[nH]c(=O)n(C2CC(O)C(CO)O2)cc1I (stereo unspecified) too.
Completion: -7.44

Prompt: Can you check CC1OC(CC(=O)O)CC2=C1C(=O)c1c(O)cccc1C2=O (stereo unspecified) next?
Completion: 105

Prompt: `CC(C)C(=O)SCCCCCCC(=O)Nc1nc(-c2ccccc2)cs1` ?
Completion: 34.6

Prompt: Now try NC(=O)c1cccc2cn(-c3ccc(C4CCCNC4)cc3)nc12 (stereo unspecified) .
Completion: -10.9

Prompt: Thanks! And `O=c1cc(-c2ccc(O)cc2)[nH]c(=S)[nH]1` ?
Completion: -17.6

Prompt: Now this one: `Nc1ccccc1NC(=O)c1cnccn1`
Completion: 3.42

Prompt: Another: Nc1ncn(C2OC(CO)C(O)C2O)c(=O)n1 (stereo unspecified)
Completion: 17.7

Prompt: Lookup O=C(CCSc1nc2ccccc2c(=O)[nH]1)NC1CCC(c2nnc(-c3ccccc3)o2)CC1 (stereo unspecified)
Completion: 31.3

---

Assign z-score to each entry below.
# run description: MELAS cybrid and Rieske KO viability enhancers – cell-based, MELAS cybrids, Rieske KO mouse fibroblasts, CellTiter-Glo, primary screen (AID 1508586);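 also: z relative to plate mean and SD of compound and empty wells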
# condition info: Rieske KO mouse fibroblast survival, low glucose, CellTiter-Glo 72 h
When you answer, write just the number.

Prompt: GET /values?readout=z-score&item= `COc1ccc(CN(C)C(=O)Nc2nc(C)n(C)n2)c2cccnc12`
Completion: -0.562

Prompt: Would you mind doing `COc1cc(-c2ncn(C=CC(=O)OC(C)C)n2)cc(C(F)(F)F)c1` as well?
Completion: -7.09

Prompt: Another compound to look at: O=C(Nc1ccccc1Br)NC1CCN(c2ccc(C(F)(F)F)cn2)C1 (stereo not drawn)
Completion: 0.944

Prompt: Next up: `Cc1c(OCC(F)(F)F)ccnc1C[S@@](=O)c1nc2ccccc2[nH]1`
Completion: -0.121

Prompt: Repeat with `Cc1ccccc1-n1c(Cn2nc(-c3cccc(O)c3)c3c(N)ncnc32)nc2cccc(C)c2c1=O`
Completion: -0.436

Prompt: Here is the next compound: `Cc1nn(C)cc1CNc1cc(C(=O)NCc2cn3ccccc3n2)cc(S(=O)(=O)NC(C)C)c1`
Completion: -0.702

Prompt: // same read-out, input: `O=C(NCc1ccccn1)c1cc(NCC2CC2)cc(S(=O)(=O)N2CCCC2)c1`
Completion: -0.67

Prompt: Thanks! And `CC(C)(C)c1cc(C=C(C#N)C(N)=S)cc(C(C)(C)C)c1O` ?
Completion: -0.375

Prompt: Here is the next compound: COC(=O)NC(C(=O)N1CCCC1c1ncc(-c2ccc(-c3ccc(-c4cnc(C5CCCN5C(=O)C(NC(=O)OC)C(C)C)[nH]4)cc3)cc2)[nH]1)C(C)C (stereo not drawn)
Completion: 0.581

Prompt: Now this one: `COc1ccc(-c2cc(-n3cccn3)ncn2)c(-n2cccn2)c1`
Completion: 0.208

Prompt: Another compound to check: `N#CSc1cc(SC#N)c(N)nc1N`
Completion: -2.9

Prompt: // repeat for CC(C)c1c(C(=O)Nc2ccccc2)c(-c2ccccc2)c(-c2ccc(F)cc2)n1CCC(O)CC(O)CC(=O)O (stereo not drawn) and report
Completion: -1.34

Prompt: And for `CC(C)C[C@H](NC(=O)[C@@H](COC(C)(C)C)NC(=O)[C@H](Cc1ccc(O)cc1)NC(=O)[C@H](CO)NC(=O)[C@H](Cc1c[nH]c2ccccc12)NC(=O)[C@H](Cc1cnc[nH]1)NC(=O)[C@@H]1CCC(=O)N1)C(=O)N[C@@H](CCCN=C(N)N)C(=O)N1CCC[C@H]1C(=O)NNC(N)=O` ?
Completion: -0.444

Prompt: Follow-up entry: `COc1ccc2c(c1)CCN(C(=O)Nc1n[nH]c(-c3ccccc3F)n1)C2`
Completion: 3.73

Prompt: Moving on to `O=C(O)c1ccc(-c2ccccc2C(F)(F)F)o1`
Completion: -0.553

Prompt: Query `CCn1c2ccccc2c2cc(CNC)ccc21` next
Completion: -0.0619

Prompt: Next compound up: `CCc1nc(CNc2cc(C(=O)NCc3ccccn3)cc(S(=O)(=O)N3CCCC3)c2)c(C)[nH]1`
Completion: -0.597

Prompt: Same thing, different compound: `CC(C)C[C@@H]1NC(=O)[C@H]2CN(S(=O)(=O)c3cccc4ccccc34)CCN2C1=O`
Completion: -0.159
